Details: 308.15 K; 40000 kPa; Liquid; Vibrating tube method
quantity.kind: mass density (kg/m3)

compound="COC(=O)OC [dimethyl carbonate]" recorded_number=1084.38
compound=CO recorded_number=811.08
compound=CCCO recorded_number=819.06
compound=CCO recorded_number=808.06

###

Conditions: 293.15 K; 30000 kPa; Liquid; Vibrating tube method
quantity.kind: mass density (kg/m3)

compound="COC(=O)OC [dimethyl carbonate]" readout_units=kg/m3 recorded_number=1094.75
compound=CCO readout_units=kg/m3 recorded_number=812.52
compound=CCCO readout_units=kg/m3 recorded_number=823.7
compound=CO readout_units=kg/m3 recorded_number=815.93
